Hey, just so you know, these numbers are from ChEMBL document CHEMBL1145498.

target: Serine/threonine-protein kinase PAK 5 (Homo sapiens) (UniProt Q9P286)
Sequence (Q9P286 whole entry, looked up): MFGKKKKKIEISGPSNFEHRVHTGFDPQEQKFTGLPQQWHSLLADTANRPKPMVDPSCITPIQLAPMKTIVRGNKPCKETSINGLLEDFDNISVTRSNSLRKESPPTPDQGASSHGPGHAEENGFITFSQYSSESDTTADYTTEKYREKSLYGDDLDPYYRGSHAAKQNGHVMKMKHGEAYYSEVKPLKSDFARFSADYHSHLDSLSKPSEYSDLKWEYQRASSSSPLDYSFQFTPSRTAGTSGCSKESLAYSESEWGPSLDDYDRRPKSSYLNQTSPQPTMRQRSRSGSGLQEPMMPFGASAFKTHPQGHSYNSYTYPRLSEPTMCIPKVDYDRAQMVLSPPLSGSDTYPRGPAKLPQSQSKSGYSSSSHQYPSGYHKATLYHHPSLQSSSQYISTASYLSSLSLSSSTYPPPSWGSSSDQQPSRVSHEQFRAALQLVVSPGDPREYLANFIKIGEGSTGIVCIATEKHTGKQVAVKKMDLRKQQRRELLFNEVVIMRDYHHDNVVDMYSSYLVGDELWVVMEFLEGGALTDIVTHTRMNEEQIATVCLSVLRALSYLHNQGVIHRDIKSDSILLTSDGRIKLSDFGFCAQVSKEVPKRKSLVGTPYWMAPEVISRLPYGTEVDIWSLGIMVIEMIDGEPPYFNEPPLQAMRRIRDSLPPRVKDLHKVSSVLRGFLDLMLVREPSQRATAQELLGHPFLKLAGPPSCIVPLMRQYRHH
Please respond with 1 when measured ΔTm is strictly beneath 1 °C, and with -1 in all other cases.

CHEMICAL_SMILES: CCN(CC)CCNC(=O)c1c(C)[nH]c(/C=C2\C(=O)Nc3ccc(F)cc32)c1C
LABEL_VALUE: -1
--
CHEMICAL_SMILES: CC[C@H](CO)Nc1nc(NCc2ccccc2)c2ncn(C(C)C)c2n1
LABEL_VALUE: 1
--
CHEMICAL_SMILES: O=C1Nc2ccc(S(=O)(=O)O)cc2/C1=C1/Nc2ccccc2/C1=N\O
LABEL_VALUE: -1
--
CHEMICAL_SMILES: CC(C)(C)n1nc(-c2ccc(Cl)cc2)c2c(N)ncnc21
LABEL_VALUE: 1
